Reported values of Activity for individual entries
- Tested on: Rattus norvegicus
- assayOverview: Induction of diuresis in Rattus norvegicus albino (rat) assessed as urinary Na+ excretion at 20 mg/kg, po measured at 5-18 hr after drug administration by standard Lipschitz method (reference value: 0.65+/-0.006 mEq/L)
- Type: functional, Urine
Report the figure in mEq/L without appending any unit label.

[[record]]
compound = "COc1ccc(C2=NN(C(=O)COc3ccccc3)C(c3ccc(OCC(=O)O)c(OC)c3)C2)cc1 (configuration not stated)"
readingunit = "mEq/L"
numericreadout = 2.62

[[record]]
compound = "COc1cc(C2CC(c3ccc(Cl)cc3)=NN2C(=O)c2ccc(C)cc2)ccc1OCC(=O)O (configuration not stated)"
readingunit = "mEq/L"
numericreadout = 4.31

[[record]]
compound = "COc1cc(C2CC(c3ccc(O)cc3)=NN2C(=O)COc2ccc(C)cc2)ccc1OCC(=O)O (configuration not stated)"
readingunit = "mEq/L"
numericreadout = 0.12


Entry COc1cc(C2CC(c3ccc(Cl)cc3)=NN2C(=O)COc2ccc(C)cc2)ccc1OCC(=O)O (configuration not stated) ; Activity = 3.13

Entry COc1cc(C2CC(c3ccc(O)cc3O)=NN2C(=O)COc2ccccc2)ccc1OCC(=O)O (configuration not stated) ; Activity = 3.66

Entry COc1ccc(C2=NN(C(=O)c3ccc(Cl)cc3)C(c3ccc(OCC(=O)O)c(OC)c3)C2)cc1 (configuration not stated) ; Activity = 0.11

Entry NS(=O)(=O)c1cc(C(=O)O)c(NCc2ccco2)cc1Cl [FUROSEMIDE] ; Activity = 3.11

---

- System: Rattus norvegicus
- assayOverview: Induction of diuresis in Rattus norvegicus albino (rat) assessed as urinary K+ excretion at 20 mg/kg, po measured at 5-18 hr after drug administration by standard Lipschitz method (reference value: 0.22 +/-0.004 mEq/L)
- Type: functional, Urine
propertyName: Activity (mEq/L)
Report the figure in mEq/L without appending any unit label.

Worked cases, Activity given:
[[record]]
compound = "COc1cc(C2CC(c3ccc(O)cc3O)=NN2C(=O)COc2ccccc2)ccc1OCC(=O)O (stereo not drawn)"
propertyname = "Activity"
readingunit = "mEq/L"
numericreadout = 2.12

[[record]]
compound = "COc1cc(C2CC(c3ccccc3)=NN2C(=O)c2ccccc2O)ccc1OCC(=O)O (stereo not drawn)"
propertyname = "Activity"
readingunit = "mEq/L"
numericreadout = 0.12


Then there is this compound:
Item COc1cc(C2CC(c3ccc(Cl)cc3)=NN2C(=O)Cc2ccccc2)ccc1OCC(=O)O (stereo not drawn) was tested on Rattus norvegicus; the reported Activity is 1.65
